B1: CPEB3 Ribozyme (parent)
chain: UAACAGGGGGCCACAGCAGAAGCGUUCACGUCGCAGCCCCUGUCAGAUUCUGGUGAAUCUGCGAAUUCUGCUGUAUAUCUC

Variants of: B1
Assay: self-cleavage, relative activity (ratio to wild type); higher = more cleavage; in vitro, sequencing
Measured Property: self-cleavage

Recorded self-cleavage (variant G8A C44U ): 0.08

self-cleavage for C11U G42A is 0

Lookup result for U26A U80C ; measured self-cleavage: 1.02

Kindly note the recorded self-cleavage for G16A U25A , which is 0.36

// self-cleavage value for A18U C68A : 0.2

Lab book: self-cleavage of U1G G8C noted as 0.59

The value of self-cleavage measured for the variant A2C A15U turned out to be 0.5

For record A18G C50U the listed self-cleavage is 0.63

Briefly, self-cleavage measured for U41C U58C : 0.58

Notebook: U49C C68A , self-cleavage read as 0.15

The reported value for A35U G53A in terms of self-cleavage is 0.51

// self-cleavage lookup, variant = U41G , result: 0.29

Given item U60G C62A , the value recorded as its self-cleavage is 0.34

Record A13U U69A . Reported self-cleavage: 0.74

The reported self-cleavage of the variant U58G U66C was 0.27

self-cleavage recorded for this variant, U31C G46U , is 0.23

// self-cleavage value for C39U U72C : 0.71

Kindly note the recorded self-cleavage for A35U U58A , which is 0.32

Consider G19A U80A . Its measured self-cleavage is 0.58

self-cleavage reading for A15U G52A : 1.05

Please fill in: self-cleavage reported for C62U U80C = 0.28

Just so you know, measured self-cleavage for U25A C79U came out at 0.27

// C38G C59U : self-cleavage value = 0.22

For C44A U69G the variant record lists self-cleavage as 0.13

Sample A13G U31A ; self-cleavage observed: 0.5

variant A15U C62A , self-cleavage observed: 0.14

Please fill in: self-cleavage reported for U58A U69A = 0.23

Just so you know, measured self-cleavage for A18C A45G came out at 0.29

# self-cleavage of U26A U69G = 0.48

Entry A35G U60A — recorded self-cleavage = 1.14

The reported value for A18C U41A in terms of self-cleavage is 0.32

Form field self-cleavage, entry A45U U72G : 0.61

The variant G10C C27U showed self-cleavage equal to 0.15

Lab note: G46U G53C gave self-cleavage of 0.23

Sure, the documented self-cleavage for C32U A45U is 0.3

Per the record, C11A A47G has self-cleavage of 0.51

self-cleavage recorded for this variant, A3U A64U , is 0.69

GET /value?item= C29A G63U &field=self-cleavage returns 0.59

Reported self-cleavage ( G7U A56U ) = 0.16

The reported self-cleavage of the variant A45U U67G was 0.17

The variant G6A C39A showed self-cleavage equal to 0.49

Input G9A G10A . Output self-cleavage: 0.45

// sample G6U C29U , its self-cleavage was 0.25

For this variant ( G16A C23A ), measured self-cleavage is 0.08

The recorded self-cleavage for entry U76C equals 1.1

self-cleavage recorded for this variant, A56G A57U , is 0.37

Item: C14U G46U | self-cleavage: 0.27

Per the records, this variant ( A5U A18G ) has self-cleavage equal to 0.87

Record G22A A35U . Reported self-cleavage: 0.19

Briefly, self-cleavage measured for G52A A56G : 1.19

Entry A56G C81A — recorded self-cleavage = 0.96

Kindly note the recorded self-cleavage for C29G C34G , which is 0.22

self-cleavage in this record for A3G C29A : 0.58

The reported value for A13U A57G in terms of self-cleavage is 1.07

Quick note, self-cleavage for G63A U74A landed at 0.33

The value of self-cleavage measured for the variant C12U U72A turned out to be 1.1

For U41G U72G the variant record lists self-cleavage as 0.41

So for A13G U31C , the logged self-cleavage turned out to be 0.45

Reported self-cleavage of A45U A65U : 0.18

Briefly, self-cleavage measured for A5G A45C : 0.42

Entry A20C A45G — recorded self-cleavage = 0.33

Entry A5U U60A , self-cleavage reported as 0.76

Measured self-cleavage, A35U A45C : 0.18

Notebook: A64G U80G , self-cleavage read as 0.67

Reported self-cleavage ( C29U U72G ) = 0.53

Given item U67G U78A , the value recorded as its self-cleavage is 0.67

Memo: C11U G33U , reported self-cleavage: 0.19

Looking up U25A U54C , I see its self-cleavage listed as 0.27

The recorded self-cleavage for U48C G52U is 0.84

Looking up A13G A18G , I found its self-cleavage recorded as 0.39

Given item G33A G52C , the value recorded as its self-cleavage is 0.12

Quick note, self-cleavage for C50G U51C landed at 0.68

# self-cleavage of G19U U25C = 0.08

For G63U A65G the variant record lists self-cleavage as 0.5

Item: C40A | self-cleavage: 0.28

Value of self-cleavage reported for the variant U80C C81U is 1.01

The reported self-cleavage of the variant C27A U76A was 0.55

Lab book: self-cleavage of U66C U76C noted as 0.43

# variant C38U U54C ; its self-cleavage = 0.68

Value of measured self-cleavage for the entry U51C A64G : 0.81

The recorded self-cleavage for U25C U67G is 0.11

For reference, reported self-cleavage for A15C U74C stands at 1.16

Measured self-cleavage of A56G A64C : 0.46

// self-cleavage lookup, variant = G9U U78A , result: 0.27

Notebook: U49C G53C , self-cleavage read as 0.44

Field self-cleavage (entry A35G G36C ) reads 0.29

The variant listed as G36A U60A shows self-cleavage equal to 0.18

# variant G9A U67C ; its self-cleavage = 0.08

get_value(item= G16A A64U , readout=self-cleavage) returns 0.19

GET /value?item= G61C A64G &field=self-cleavage returns 0.19

GET /value?item= G8A U80A &field=self-cleavage returns 0.29
